- Tested on: human Factor 7 mRNA
- protocol summary: Dose-dependent antisense inhibition of human Factor 7 in HepB3 cells, transfection with electroporation
- Assay type: cell-based
- test parameters: 12.5 μM, 16 hours (Example 8, Table 16)
In the oligonucleotide strings, read from the 5' end, every base follows the letter of its sugar. An asterisk marks phosphorothioate; unmarked linkages are phosphodiester. Other units and linkages are bracketed, terminal groups are in braces. A string of capitals states the bases alone. e = 2'-O-(2-methoxyethyl) (MOE); [5mC] = 5-methylcytosine; d = 2'-deoxy (DNA)
satisfied means recorded percent inhibition of Factor 7 mRNA, relative to untreated control cells is 70% or above; not satisfied means it is below 70%.

Query string: Determine whether this substance has percent inhibition of Factor 7 mRNA, relative to untreated control cells no lower than 70%: 422086 (antisense eT*eG*e[5mC]*eA*eT*dG*dG*dT*dG*dA*dT*dG*d[5mC]*dT*dT*e[5mC]*eT*eG*eA*eA) [compound 422086]
Result string: satisfied

Query string: Determine whether this substance has percent inhibition of Factor 7 mRNA, relative to untreated control cells no lower than 70%: 422087 (antisense e[5mC]*eA*eT*eG*e[5mC]*dA*dT*dG*dG*dT*dG*dA*dT*dG*d[5mC]*eT*eT*e[5mC]*eT*eG) [compound 422087]
Result string: not satisfied

Query string: Determine whether this substance has percent inhibition of Factor 7 mRNA, relative to untreated control cells no lower than 70%: 422130 (antisense eG*e[5mC]*e[5mC]*eT*eG*dA*dG*dG*d[5mC]*d[5mC]*dA*dG*d[5mC]*dA*dG*eA*eT*e[5mC]*eA*e[5mC]) [compound 422130]
Result string: not satisfied

Query string: Determine whether this substance has percent inhibition of Factor 7 mRNA, relative to untreated control cells no lower than 70%: 422183 (antisense eG*e[5mC]*eG*d[5mC]*d[5mC]*dA*d[5mC]*d[5mC]*d[5mC]*dG*d[5mC]*d[5mC]*dG*dG*d[5mC]*dT*d[5mC]*eT*eG*e[5mC]) [compound 422183]
Result string: not satisfied

Query string: Determine whether this substance has percent inhibition of Factor 7 mRNA, relative to untreated control cells no lower than 70%: 407939 (antisense eT*eG*e[5mC]*eA*eG*d[5mC]*d[5mC]*d[5mC]*dG*dG*d[5mC]*dA*d[5mC]*d[5mC]*d[5mC]*eA*eG*e[5mC]*eG*eA) [compound 407939]
Result string: not satisfied

Further cases:
Query string: Determine whether this substance has percent inhibition of Factor 7 mRNA, relative to untreated control cells no lower than 70%: 422150 (antisense eG*e[5mC]*eA*dT*dG*dG*dT*dG*dA*dT*dG*d[5mC]*dT*dT*d[5mC]*dT*dG*eA*eA*eT) [compound 422150]
Result string: not satisfied

Query string: Determine whether this substance has percent inhibition of Factor 7 mRNA, relative to untreated control cells no lower than 70%: 422142 (antisense eG*eA*eG*eT*eT*d[5mC]*dT*dG*d[5mC]*dA*dG*dG*dA*dG*d[5mC]*eG*eG*e[5mC]*e[5mC]*eT) [compound 422142]
Result string: not satisfied

Query string: Determine whether this substance has percent inhibition of Factor 7 mRNA, relative to untreated control cells no lower than 70%: 422229 (antisense eA*eT*dG*d[5mC]*dA*dT*dG*dG*dT*dG*dA*dT*dG*d[5mC]*dT*eT*e[5mC]*eT*eG*eA) [compound 422229]
Result string: not satisfied

Query string: Determine whether this substance has percent inhibition of Factor 7 mRNA, relative to untreated control cells no lower than 70%: 407935 (antisense eA*eT*eG*e[5mC]*eA*dT*dG*dG*dT*dG*dA*dT*dG*d[5mC]*dT*eT*e[5mC]*eT*eG*eA) [compound 407935]
Result string: satisfied
